Recorded IC50 by entry
system: 293T-HRE-GFP-luc cells; experiment: Cell-based reporter assay for IC50 determinations (HRE-luciferase, hypoxia); conditions: 6 h, 6 hrs hypoxia (1% O2), luminescence

State its IC50: `CN1CCN(c2cc(Cn3cc(-c4nc(-c5ccc(OC(F)(F)F)cc5)no4)ccc3=O)ccn2)CC1=O`
< 0.1 µM

Please list IC50 recorded for the compound `CN1CCN(C(=O)c2cc(Cn3nc(-c4nc(-c5ccc(OC(F)(F)F)cc5)no4)ccc3=O)ccc2F)CC1`
0.1 to 1 µM

Next:
Hello, please tell me recorded IC50 for this one: `COCCOc1cccc(Cn2cc(-c3noc(-c4ccc(S(=O)(=O)C(C)C)cc4)n3)ccc2=O)c1`
0.1 to 1 µM

----------
test system: 293T-HRE-GFP-luc cells; test: Cell-based reporter assay for IC50 determinations (HRE-luciferase, hypoxia); conditions: 6 h, 6 hrs hypoxia (1% O2), luminescence
pIC50: −log10 of the molar value.
Catalogue of pIC50 readings, one per entry.

Here are 8 molecules together with their reported answers.
Find the measured pIC50 of `CC(C)Oc1ccc(-c2nnc(-c3ccc(=O)n(Cc4cccc(N5CCC(S(C)(=O)=O)CC5)c4)c3)o2)cc1` and report it.
6.00 to 7.00

Give a short answer stating reported pIC50 for `N#CC1CCN(c2cc(Cn3cc(-c4nc(-c5ccc(OC(F)(F)F)cc5)no4)ccc3=O)ccn2)CC1` .
> 7.00

Respond only with pIC50 recorded for `COCCOc1cccc(Cn2cc(-c3noc(-c4cnc(N(C)C)nc4)n3)ccc2=O)c1`
> 7.00

Give the reported pIC50 for this molecule. `COCCOc1cccc(Cn2cc(-c3noc(-c4cnc(C5CC5)nc4)n3)ccc2=O)c1`
> 7.00

Return reported pIC50. Input molecule: `O=c1ccc(-c2nc(-c3ccc(OC(F)(F)F)cc3)no2)cn1Cc1cccc([N+](=O)[O-])c1`
6.00 to 7.00

For the molecule `O=c1ccc(-c2nc(-c3ccc(OC(F)(F)F)cc3)no2)cn1Cc1cccc(CS)c1` , give its reported pIC50.
> 7.00

Tell me pIC50 reported for `COC(=O)c1cccc(Cn2nc(-c3nc(-c4ccc(OC(F)(F)F)cc4)no3)ccc2=O)c1`
6.00 to 7.00

Input `CS(=O)(=O)C1CCN(c2cccc(Cn3cc(-c4cc(-c5ccc(OC(F)(F)F)cc5)no4)ccc3=O)c2)CC1` , output reported pIC50.
> 7.00

More entries:
Note down pIC50 recorded for `N#Cc1cccc(Cn2nc(-c3nc(-c4ccc(OC(F)(F)F)cc4)no3)ccc2=O)c1`
> 7.00

// Input: `COCCOc1cccc(Cn2cc(-c3noc(-c4cnc(OC(C)C)nc4)n3)ccc2=O)c1` . Output its pIC50 only.
> 7.00

----------
tested on: 293T-HRE-GFP-luc cells; experiment: Cell-based reporter assay for IC50 determinations (HRE-luciferase, hypoxia); settings: 6 h, 6 hrs hypoxia (1% O2), luminescence
Where a name gives a salt, the structure may show the parent alone.
readout.type: IC50

Please give measured IC50 of the following entry: CN1CCN(c2cccc(Cn3cccc(C(=O)Nc4ccc(OC(F)(F)F)cc4)c3=O)c2)CC1 [Example 11, trifluoroacetate]
< 0.1 µM

Give recorded IC50. `CN(C)C(=O)CCc1cccc(Cn2cc(-c3nc(-c4ccc(OC(F)(F)F)cc4)no3)ccc2=O)c1`
< 0.1 µM

Identify the reported IC50 for the following entry. `CN1CCN(c2cc(Cn3cc(-c4nc(-c5ccc(OC(F)(F)F)cc5)no4)ccc3=O)ccc2F)CC1`
< 0.1 µM

***
For the compound `Cc1cnc(-c2nc(-c3ccc(OC(F)(F)F)cc3)no2)nc1Cc1cccc(N2CCN(C)CC2)c1` , report IC50.
< 0.1 µM

Look up and report measured IC50 for this entry: `CC(C)(O)c1cc(Cn2cc(-c3nc(-c4ccc(OC(F)(F)F)cc4)no3)ccc2=O)ccn1`
0.1 to 1 µM

For the compound `CS(=O)(=O)CCCOc1cccc(Cn2cc(-c3nc(-c4ccc(OC(F)(F)F)cc4)no3)ccc2=O)c1` , report IC50.
0.1 to 1 µM

Return value of IC50 for input `CN1CCN(c2cccc(Cn3cccc(-c4nc(-c5ccc(OC(F)(F)F)cc5)no4)c3=O)c2)CC1` , no commentary.
< 0.1 µM

For the compound COCCCNc1cc(Cn2c(C)ccc(-c3nc(-c4ccc(OC(F)(F)F)cc4)no3)c2=O)ccn1 [Example 17, trifluoroacetate] , give its measured IC50 value.
0.1 to 1 µM

Answer with reported IC50 of `NS(=O)(=O)c1cccc(Cn2nc(-c3nc(-c4ccc(OC(F)(F)F)cc4)no3)ccc2=O)c1`
< 0.1 µM

Supply measured IC50 of `COCCOc1cccc(Cn2cc(-c3noc(-c4ccc(OCC(F)(F)F)cc4)n3)ccc2=O)c1` in your reply.
< 0.1 µM

Note down IC50 recorded for `CS(=O)(=O)CCCOc1cccc(Cn2cc(-c3noc(-c4ccc(S(=O)(=O)C(F)(F)F)cc4)n3)ccc2=O)c1`
< 0.1 µM

Report IC50 for `Cc1ccc(Cn2cc(-c3nc(-c4ccc(OC(F)(F)F)cc4)no3)ccc2=O)cc1`
< 0.1 µM

Write down IC50 measured for item `COC(=O)Cc1cccc(Cn2nc(-c3nc(-c4ccc(OC(F)(F)F)cc4)no3)ccc2=O)c1`
< 0.1 µM

Read the entry `COCCOc1cccc(Cn2cc(-c3noc(-c4ccc5[nH]ccc5c4)n3)ccc2=O)c1` and write its reported IC50.
0.1 to 1 µM

Give reported IC50 value for `COCCOc1cccc(Cn2cc(-c3noc(-c4ccc(CC(C)C)cc4)n3)ccc2=O)c1`
< 0.1 µM

----------
# reported IC50; entries follow
test system: 293T-HRE-GFP-luc cells; assay: Cell-based reporter assay for IC50 determinations (HRE-luciferase, hypoxia); conditions: 6 h, 6 hrs hypoxia (1% O2), luminescence

Tell us which IC50 value is on record for CC(C)(O)C(O)c1cccc(Cn2cc(-c3nc(-c4ccc(OC(F)(F)F)cc4)no3)ccc2=O)c1 (stereo not shown)
< 100 nM

---
Indicate its recorded IC50; the compound in question is `O=C(O)CCc1cccc(Cn2cc(-c3nc(-c4ccc(OC(F)(F)F)cc4)no3)ccc2=O)c1`
100 to 1000 nM

Dear colleague, please send me the reported IC50 for `COCCOc1cccc(Cn2cc(-c3noc(-c4ccc(C(F)(F)F)cc4)n3)ccc2=O)c1` when you can.
< 100 nM

----------
test system: 293T-HRE-GFP-luc cells; experiment: Cell-based reporter assay for IC50 determinations (HRE-luciferase, hypoxia); conditions: 6 h, 6 hrs hypoxia (1% O2), luminescence
readout.type: IC50

Previously resolved entries follow.
Please give measured IC50 of the following entry: COCCOc1cccc(Cn2cc(-c3noc(-c4ccc(COC)cc4)n3)ccc2=O)c1 [Example 227]
< 0.1 µM

Let me know recorded IC50 for COC(=O)Cc1cccc(Cn2cc(-c3nc(-c4ccc(OC(F)(F)F)cc4)no3)ccc2=O)c1 [Example 155] , thanks.
< 0.1 µM

Respond only with IC50 recorded for COc1ccc(Cn2cc(-c3nc(-c4ccc(OC(F)(F)F)cc4)no3)ccc2=O)cc1 [Example 136]
< 0.1 µM

***
// fetch IC50 given entry Cc1ccc(C(=O)Nc2ccc(OC(F)(F)F)cc2)c(=O)n1Cc1ccnc(N2CCN(C)CC2)c1 [Example 8, bis-trifluoroacetate]
< 0.1 µM

Let me know recorded IC50 for COCCOc1cccc(Cn2cc(-c3noc(-c4ccc(N5CCCC5)cc4)n3)ccc2=O)c1 [Example 229] , thanks.
< 0.1 µM

Report IC50 for CNC(=O)c1cccc(Cn2cc(-c3nc(-c4ccc(OC(F)(F)F)cc4)no3)ccc2=O)c1 [Example 133]
< 0.1 µM

Report IC50, nothing else, for this compound: CCN(CC)S(=O)(=O)c1cccc(Cn2cc(-c3nc(-c4ccc(OC(F)(F)F)cc4)no3)ccc2=O)c1 [Example 164]
< 0.1 µM

----------
system: 293T-HRE-GFP-luc cells; assay: Cell-based reporter assay for IC50 determinations (HRE-luciferase, hypoxia); settings: 6 h, 6 hrs hypoxia (1% O2), luminescence
Attribute: IC50

Example entries and their recorded answers appear below.
Answer with reported IC50 of NCC(O)COc1cccc(Cn2cc(-c3nc(-c4ccc(OC(F)(F)F)cc4)no3)ccc2=O)c1 (stereo not shown)
< 0.1 µM

Quote IC50 reported for `COCCOc1cccc(Cn2cc(-c3noc(-c4ccc(C5CCCCC5)cc4)n3)ccc2=O)c1` please.
< 0.1 µM

Note IC50 for the compound shown: `Cc1ccc(-c2nnc(-c3ccc(OC(F)(F)F)cc3)o2)c(=O)n1Cc1ccnc(N2CCN(C)CC2)c1`
1 to 10 µM

Could you now look at the following compound, please?
Supply recorded IC50 for `CN1CCN(c2cccc(Cn3cc(-c4nc(-c5ccc(OC(F)(F)F)cc5)no4)ccc3=O)c2)CC1=O` here.
< 0.1 µM

----------
tested on: 293T-HRE-GFP-luc cells; assay: Cell-based reporter assay for IC50 determinations (HRE-luciferase, hypoxia); details: 6 h, 6 hrs hypoxia (1% O2), luminescence
The molecules listed here are annotated with their IC50.

Worked cases, answers included:
Name the value of IC50 reported for `Cc1ccc(-c2nc(-c3ccc(OC(F)(F)F)cc3)no2)c(=O)n1Cc1cccc(C(N)=O)c1` when tested on 293T-HRE-GFP-luc cells.
100 to 1000 nM

Please indicate recorded IC50 of `CS(=O)(=O)c1cccc(Cn2cc(-c3nc(-c4ccc(OC(F)(F)F)cc4)no3)ccc2=O)c1` measured with 293T-HRE-GFP-luc cells.
< 100 nM

New cases:
Lab note: record IC50 of `COCCOc1cccc(Cn2cc(-c3noc(-c4ccc(C5=CCOCC5)cc4)n3)ccc2=O)c1` tested on 293T-HRE-GFP-luc cells.
< 100 nM

Give the observed IC50 of `COc1cccc(Cn2cc(-c3nc(-c4ccc(OC(F)(F)F)cc4)no3)ccc2=O)c1` for 293T-HRE-GFP-luc cells.
< 100 nM

Write down the reported IC50 (system: 293T-HRE-GFP-luc cells) of O=c1ccc(-c2cc(-c3ccc(OC(F)(F)F)cc3)no2)cn1Cc1cccc(NC2CCCS(=O)(=O)C2)c1 (centres unmarked)
< 100 nM
